# Tested on: SK-OV-3
# ASSAY NOTES: NCI tumour cell line growth inhibition, 48 h
Calls of active or inactive are those of the source. No stated cut-off is given here; in the data, active = GI50 up to about 1.1 µM and inactive = higher.
Return exactly one item of active, inactive

Use these answered entries as a reference point.
COMPOUND: C[N+](C)(CCNc1ccc(NCC[N+](C)(C)Cc2ccc([N+](=O)[O-])cc2)c2c1C(=O)c1ccccc1C2=O)Cc1ccc([N+](=O)[O-])cc1
LABEL CLASS: inactive
--
COMPOUND: CC1(C)CC(=O)C(=CNc2nc(-c3ccc(Br)cc3)cs2)C(=O)C1
LABEL CLASS: inactive
--
COMPOUND: COC(=O)[C@@H]1C=C[C@H](OC2OC(COC(C)=O)C(OC(C)=O)C(OC(C)=O)C2OC(C)=O)n2c(=O)n(-c3ccccc3)c(=O)n21 (stereo not given in full)
LABEL CLASS: inactive
--
COMPOUND: CN(CC(=O)O)c1ncc2c(n1)CCCC2
LABEL CLASS: inactive
--
COMPOUND: N#Cc1ccccc1NC(=O)/C(=N\Nc1ccc([N+](=O)[O-])cc1)C1C(=O)NC(=O)NC1=O
LABEL CLASS: inactive
--
COMPOUND: CC(=N\N=C\c1ccccn1)/C(C)=N/N=C/c1ccccn1
LABEL CLASS: inactive

-- ask GET /call?item= CC(C)(CCCCC(C)(C)[N+](C)(C)C)[N+](C)(C)C returns the recorded outcome of this test.
-- reply inactive

-- ask GET /call?item= Cc1nc2c(Br)cc(Br)cc2c(=O)n1-c1ccccc1N returns the recorded outcome of this test.
-- reply inactive

-- ask GET /call?item= Nc1nc2c(c(=O)[nH]1)N=C(COP(=O)(O)OP(=O)(O)O)CN2 returns the recorded outcome of this test.
-- reply inactive
